- TARGET OR TEST SYSTEM: Grb2 SH2 (UniProt P62993)
- Sequence (P62993 whole entry, looked up, the tested form may be a part): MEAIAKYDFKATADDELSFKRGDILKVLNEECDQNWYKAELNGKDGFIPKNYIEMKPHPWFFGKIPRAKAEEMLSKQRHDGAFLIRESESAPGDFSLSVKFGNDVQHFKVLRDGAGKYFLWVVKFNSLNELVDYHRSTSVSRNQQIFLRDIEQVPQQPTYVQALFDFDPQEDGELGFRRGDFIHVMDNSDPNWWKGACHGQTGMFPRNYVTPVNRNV
- PROTOCOL SUMMARY: SH2 binding enrichment of the phosphorylated peptide, bacterial display (enrichment ratio); higher = better substrate or ligand; peptides without Tyr show the background;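 note: peptide library displayed on the E. coli surface as eCPX fusions, selected cells deep-sequenced, score is each peptide's frequency after selection divided by its frequency in the input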
Grouping by measured SH2 binding enrichment is done with the following cut points: low interval: < 0.8; middle interval: ≥ 0.8 and < 1; high interval: ≥ 1

Using the reported SH2 binding enrichment, which band applies to HHIDYYKKTTN [FGFR1_Y654] ?
low interval

Looking at KNKLNYTLPQD [NRAP_Y523] , which class would you pick?
middle interval

Which bin, given its SH2 binding enrichment, does KSDVVYTDWKK [ORM1_Y175] occupy?
low interval

Class (by measured SH2 binding enrichment) for VTVLDYDKIGK [SYT1_Y365]
low interval

Which class holds HQNGTYGLHQD [SGSH_Y89_M88T] ?
high interval

Could you place DFLSSYSAVNQ [OAT_Y85] in its proper category? Many thanks.
high interval

Textbook exercise: identify the category of the sequence given here, KIDAKYKKKIK [WDR19_Y1230_E1235K] , according to its measured value.
low interval

Please report the category associated with HFPDVYAWEQL [ALX3_Y181_R183W_YF] , nothing else.
high interval

Consider WGLCSYYETSK [MAGED2_Y448_R446C] . To which SH2 binding enrichment class does it belong?
low interval

Sort MSRDVYSTDYY [NTRK2_Y702] into one of the categories.
high interval

Band assignment needed for VLALWYYYLTH [ZDHHC23_Y127] please.
high interval

Form field 'band' for TRGLEYIVPLM [CLCN4_Y548_G544R]
middle interval

Field: class (SH2 binding enrichment) — entry: WLFFRYLAIGC [ATP2A2_Y836]
middle interval

Where would PEPHIYAVADV [MYO9A_Y216_L211P] land among the classes by reported SH2 binding enrichment?
middle interval

Please indicate the class for DALDNYVVRGV [PCCA_Y473_I475V] based on its SH2 binding enrichment.
low interval

Please indicate the class for REVPVYISEDS [SYNM_Y460_G462S] based on its SH2 binding enrichment.
high interval

Bin this entry: PDNKPYIFKVF [PIK3AP1_Y553_E551K]
high interval

Could you tell me which band LWKWKYEELKE [CCDC102B_Y299] belongs to?
high interval

Using the reported SH2 binding enrichment, which band applies to LINLKYSVEEE [PCDH19_Y27] ?
middle interval

// bin(item) where item = GFKVRYATWSI [FGFR1_Y210_YF]
high interval

Looking at KPPPSYESEEE [BRD4_Y599_T598S] , which class would you pick?
high interval

# classify by SH2 binding enrichment band: WCSNDYLGMSQ [ALAS2_Y199_R204Q]
high interval

Please report the category associated with NPSYNYEIVNQ [DYNC1H1_Y3379_R3384Q] , nothing else.
low interval

# classify by SH2 binding enrichment band: SGPRRYNIAAL [TTR_Y125_T126N]
low interval

Place this sequence in its band: RYVTRYIYNRE [HLA-DQB1_Y62]
low interval

Each sequence maps to one class by SH2 binding enrichment. Which class for FFRNVYHLASV [RBL1_Y796_K794N_YF] ?
low interval

Which class holds NGTVTYAIVAG [CDH23_Y1672] ?
low interval

Sort into band: YRKNIYNVKST [SYNE2_Y575]
low interval

Lab note: which band did GPQSLYNGLVA [UCP2_Y79_R76Q] land in?
low interval

State the band of KLNNEYLELNF [MME_Y497_YF]
low interval

Which bin should I file PTTKTYFRHFD [HBA1_Y43_P45R] under?
middle interval

Record SDVSSYLEGQA [GCG_Y110] — which class?
low interval

Could you tell me which band ELTSVYGSRAR [SENP1_Y349_D350G] belongs to?
low interval

# classify by SH2 binding enrichment band: VEDPEYAVTQL [STOML2_Y124]
high interval

Class (by measured SH2 binding enrichment) for DGKFSYLKVGH [GRM3_Y480_G475D_YF]
middle interval

Could you place KPYRVYCDMNT [FGB_Y269] in its proper category? Many thanks.
high interval

Classify this sequence: LIDGFYRLTAD [JAK2_Y373_YF]
middle interval

Classify this sequence: MARDIYRASYY [ALK_Y1278]
middle interval

Band assignment needed for SGDDGYAKDAK [TENM4_Y1530] please.
low interval

Into which category would you place PVRIAYGRPRG [SUGP2_Y985_D986G] ?
middle interval

State the class of the sequence shown: RDLTHYLMKIL [ACTG1_Y188_D187H]
high interval

Category of CYCSWYRGWAP [TIMP3_Y195_G190C] :
high interval

Class for KIVYVYVKKRS [DNAI2_Y7_E2K] ?
low interval

GET /class?item= YYHCTYKKRMI [CLEC12A_Y242]
high interval

Lab note: which band did GGQVFYNSEYG [FLT4_Y1333] land in?
low interval

The entry to classify is RAVLLYEFVGK [NATD1_Y45_YF] ; which class holds it?
high interval
